- System name: Nav 1.5 (Homo sapiens (Human), UniProt Q14524)
- Sequence (Q14524 whole entry): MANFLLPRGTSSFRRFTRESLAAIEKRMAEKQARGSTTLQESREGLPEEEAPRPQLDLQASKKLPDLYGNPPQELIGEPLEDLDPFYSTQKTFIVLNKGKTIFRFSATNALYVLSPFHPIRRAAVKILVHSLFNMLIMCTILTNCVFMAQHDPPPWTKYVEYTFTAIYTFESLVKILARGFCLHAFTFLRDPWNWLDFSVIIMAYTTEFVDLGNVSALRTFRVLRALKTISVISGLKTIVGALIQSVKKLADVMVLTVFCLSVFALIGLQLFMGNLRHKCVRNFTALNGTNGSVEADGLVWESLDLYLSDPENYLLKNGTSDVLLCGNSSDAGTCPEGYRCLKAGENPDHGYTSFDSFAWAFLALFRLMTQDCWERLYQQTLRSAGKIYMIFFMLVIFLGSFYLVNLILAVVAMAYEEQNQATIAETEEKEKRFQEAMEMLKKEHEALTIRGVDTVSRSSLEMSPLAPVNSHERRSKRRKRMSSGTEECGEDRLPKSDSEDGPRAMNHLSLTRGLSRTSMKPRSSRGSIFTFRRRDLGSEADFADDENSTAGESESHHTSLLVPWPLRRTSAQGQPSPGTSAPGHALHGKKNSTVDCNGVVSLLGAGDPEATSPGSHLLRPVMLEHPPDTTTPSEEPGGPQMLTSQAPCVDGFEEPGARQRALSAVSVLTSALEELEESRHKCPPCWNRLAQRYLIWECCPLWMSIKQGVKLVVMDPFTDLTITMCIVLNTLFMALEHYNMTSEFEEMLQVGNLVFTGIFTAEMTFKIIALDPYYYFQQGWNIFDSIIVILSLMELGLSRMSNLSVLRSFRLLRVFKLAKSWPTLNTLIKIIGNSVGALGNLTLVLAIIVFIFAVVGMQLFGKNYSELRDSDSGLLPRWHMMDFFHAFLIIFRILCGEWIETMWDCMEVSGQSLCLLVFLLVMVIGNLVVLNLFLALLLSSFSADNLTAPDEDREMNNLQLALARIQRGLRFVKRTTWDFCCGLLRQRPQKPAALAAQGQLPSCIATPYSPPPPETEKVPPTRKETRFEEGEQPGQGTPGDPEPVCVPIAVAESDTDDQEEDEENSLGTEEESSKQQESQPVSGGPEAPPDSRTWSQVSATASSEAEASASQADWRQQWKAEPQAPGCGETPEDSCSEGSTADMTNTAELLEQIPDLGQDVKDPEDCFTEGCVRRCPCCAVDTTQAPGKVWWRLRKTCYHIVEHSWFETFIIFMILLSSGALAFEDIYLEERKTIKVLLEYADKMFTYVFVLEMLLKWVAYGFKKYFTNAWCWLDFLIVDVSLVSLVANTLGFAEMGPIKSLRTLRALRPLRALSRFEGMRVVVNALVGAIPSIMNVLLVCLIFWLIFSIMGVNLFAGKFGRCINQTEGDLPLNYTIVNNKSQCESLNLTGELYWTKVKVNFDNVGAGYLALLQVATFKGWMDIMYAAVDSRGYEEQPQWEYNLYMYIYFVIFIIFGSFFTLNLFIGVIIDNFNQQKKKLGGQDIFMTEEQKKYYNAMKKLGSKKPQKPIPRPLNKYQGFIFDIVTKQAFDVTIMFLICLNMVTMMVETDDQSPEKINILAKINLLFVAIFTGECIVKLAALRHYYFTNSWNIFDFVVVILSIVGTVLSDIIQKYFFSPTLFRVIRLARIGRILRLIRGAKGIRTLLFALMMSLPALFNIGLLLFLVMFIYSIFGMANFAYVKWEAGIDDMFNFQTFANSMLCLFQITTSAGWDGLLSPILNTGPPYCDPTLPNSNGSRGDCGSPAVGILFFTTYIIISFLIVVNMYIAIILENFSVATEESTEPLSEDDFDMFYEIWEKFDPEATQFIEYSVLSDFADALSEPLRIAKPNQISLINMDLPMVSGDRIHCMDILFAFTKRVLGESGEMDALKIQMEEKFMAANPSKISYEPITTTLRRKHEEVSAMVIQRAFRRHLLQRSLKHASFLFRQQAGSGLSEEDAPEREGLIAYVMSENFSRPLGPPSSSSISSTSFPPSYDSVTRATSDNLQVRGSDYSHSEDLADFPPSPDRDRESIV
- Measurement description: Nav 1.5 in vitro assay, IonWorks Quattro (IWQ) population patch-clamp
- Assay type: cell-based
- Experimental parameters: HEK 293 cells stably transfected with Nav 1.5; 26th pulse to -20 mV
pIC50: −log10 of the molar value.
Item-by-item account of pIC50

[
  {
    "Molecule": "O=S(=O)(Nc1nccs1)c1ccc2c(c1)OCCN2c1ccc(C(F)(F)F)cn1 [Example 183]",
    "pIC50": "< 5.00"
  },
  {
    "Molecule": "O=S(=O)(Nc1nccs1)c1ccc2c(c1)OCCN2c1ccc2ncsc2c1 [Example 71, 2,2,2-Trifluoroacetate]",
    "pIC50": "< 5.00"
  },
  {
    "Molecule": "O=S(=O)(Nc1ncccn1)c1ccc2c(c1)OCCN2c1ccc(C(F)(F)F)cc1Cl [Example 16]",
    "pIC50": "< 5.00"
  }
]

###

- System name: Nav 1.5 (Homo sapiens (Human))
- Measurement description: Nav 1.5 in vitro assay, IonWorks Quattro (IWQ) population patch-clamp
- Type: cell-based
- Experimental parameters: HEK 293 cells stably transfected with Nav 1.5; 26th pulse to -20 mV
Item-by-item account of log10 of IC50
Measurement kind: log10 of IC50 (log10 of the value in µM)

[
  {
    "Compound": "O=S(=O)(Nc1nccs1)c1ccc2c(c1)OCCN2c1ccc(Cl)cc1OC(F)F [Example 193, 2,2,2-Trifluoroacetate]",
    "log10 of IC50": 0.19
  },
  {
    "Compound": "O=S(=O)(Nc1ncns1)c1ccc2c(c1)OCCN2c1ccc(C(F)(F)F)cc1-c1cn[nH]c1 [Example 4]",
    "log10 of IC50": -0.03
  },
  {
    "Compound": "COc1cc(Cl)ccc1N1CC(C)Oc2cc(S(=O)(=O)Nc3nccs3)ccc21 (racemic) [Example 103]",
    "log10 of IC50": 0.98
  },
  {
    "Compound": "Cc1ccc(N2CCOc3cc(S(=O)(=O)Nc4nccs4)ccc32)cc1C#N [Example 115]",
    "log10 of IC50": 0.89
  },
  {
    "Compound": "N#CCc1cccc(N2CCOc3cc(S(=O)(=O)Nc4nccs4)ccc32)c1 [Example 174, 2,2,2-Trifluoroacetate]",
    "log10 of IC50": 0.30
  },
  {
    "Compound": "Cc1ccc(Cl)c(N2CCOc3cc(S(=O)(=O)Nc4nccs4)ccc32)c1 [Example 67, 2,2,2-Trifluoroacetate]",
    "log10 of IC50": 0.73
  },
  {
    "Compound": "COc1ccc(OC)c(N2CCOc3cc(S(=O)(=O)Nc4nccs4)ccc32)c1 [Example 139]",
    "log10 of IC50": 0.85
  },
  {
    "Compound": "O=S(=O)(Nc1ccncn1)c1ccc2c(c1)OCCN2c1ccc(C(F)(F)F)cc1Cl [Example 32]",
    "log10 of IC50": 0.68
  },
  {
    "Compound": "Cc1cc(OC(F)F)cnc1N1CCOc2cc(S(=O)(=O)Nc3nccs3)ccc21 [Example 146]",
    "log10 of IC50": 0.72
  }
]
